assay: S6 kinase pathway phospho-S6 level changes – cell-based, A549, cytoblot, luminescence, serum-stimulated, primary screen (AID 1158); conditions: 5 h, higher = more signal;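 also: serum-stimulated A549 lung adenocarcinoma cells; signal is phosphorylated S6 detected by cytoblot immunostaining with HRP secondary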
Assign yes to entries whose z-score meets or exceeds -0.04; assign no to the rest.

INSERT INTO measurements (compound, cat) VALUES
  ('COc1cc2c(cc1O)C(c1ccc(CN3CCCC3)cc1)N(Cc1cc3c(cc1Br)OCO3)CC2 (stereo not given)', 'yes'),
  ('C=C(COC)/C(=C/C[C@H](OC(=O)c1ccncc1)c1ccc(CO)o1)c1cnc2ccccc2c1', 'no'),
  ('CCCCNC(=O)c1ccc(C#CC(C)(C)C)c(OC(C)=O)c1', 'yes'),
  ('CCOC(=O)C[C@H]1[C@H](OC(=O)c2ccccc2-c2ccccc2)[C@@H](NC(=O)c2ccc3ccccc3c2)c2cc(OCCCO)ccc2N1C(=O)c1ccccc1', 'yes'),
  ('O=C(Cc1ccccc1)[C@H]1C2C=CCCC(c3ccccc3)=C2CN1Cc1ccccc1 (stereo not given in full)', 'no'),
  ('CCC1=C2CN(Cc3ccccc3)[C@@H](C(=O)Cc3ccccc3)C2C=CCC1 (stereo not given in full)', 'yes'),
  ('COc1ccc([Si](C)(C)[C@@H]2[C@@H](CCO)O[C@]3(C(=O)N(Cc4ccccc4)c4ccc(N5C(=O)c6cccc7cccc5c67)cc43)[C@H]2C)cc1', 'yes'),
  ('C=C[C@H]1C(C(=O)OCC)=CC[C@@H](c2ccccc2)N1S(=O)(=O)c1ccc(C)cc1', 'no');

Please turn your attention to the following entry.
Could you verify whether the entry `NCCCCCNC(=O)[C@@H]1C[C@@H]2C(=O)N[C@@H](CCCCN)C(=O)N2[C@@H]1c1ccc(O)cc1` shows z-score of no less than -0.04? no
